MEASUREMENT PARAMETERS: in isopropanol, 281.7 K
METRIC NAME: solubility (mole fraction)
Answers are plain numbers.

Field request: solubility (mole fraction) | item: CC(=O)Oc1ccccc1C(=O)O
0.0223

###

MEASUREMENT PARAMETERS: in ethanol, 293.54 K
METRIC NAME: solubility (mole fraction)

Field request: solubility (mole fraction) | item: CC(=O)Nc1ccc(O)cc1
0.0508

###

MEASUREMENT PARAMETERS: in ethanol, 311.34 K
METRIC NAME: solubility (mole fraction)

Field request: solubility (mole fraction) | item: CN=C(NC#N)NCCSCc1nc[nH]c1C
0.0101
